Just for reference, patent US7851637B2 is where these values come from.

Assay system: Bcl-xL (Homo sapiens, UniProt Q07817)
Sequence (Q07817 whole entry): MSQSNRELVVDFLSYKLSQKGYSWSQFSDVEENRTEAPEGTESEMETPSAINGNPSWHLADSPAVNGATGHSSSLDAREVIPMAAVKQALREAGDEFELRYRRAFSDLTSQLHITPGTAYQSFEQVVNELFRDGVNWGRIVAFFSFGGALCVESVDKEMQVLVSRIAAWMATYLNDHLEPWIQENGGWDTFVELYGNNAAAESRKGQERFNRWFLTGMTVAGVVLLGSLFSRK
Method description: Bcl-xL binding affinity analysis (fluorescence polarization binding assay)
Design: scale not given here
Attribute measured: Bcl-XL binding affinity Ki

// known answers, use as guide
COc1c(CN2O[C@@H](CO)[C@@H]([C@H](C)O)[C@H]2C(=O)N[C@H]2C[C@H]3C[C@@H]([C@@H]2C)C3(C)C)cccc1-c1cccc(C(=O)N[C@H](CC2CCCCC2)CN(C)C)c1 | ♯
CC(C)C[C@@H](CN(C)C)N(Cc1ccccc1)Cc1cccc(CN2O[C@@H](CO)[C@@H]([C@H](C)O)[C@H]2C(=O)NCCCN(C)c2ccccc2)c1 | ♯
CC(C)NC(=O)c1cccc(-c2cccc(CN3O[C@@H](CO)[C@@H]([C@H](C)O)[C@H]3C(=O)N[C@H]3C[C@H]4C[C@@H]([C@@H]3C)C4(C)C)c2)c1 | ♯
C[C@@H]1[C@@H](NC(=O)[C@@H]2[C@H]([C@H](C)O)[C@H](COC(=O)NCCN3CCOCC3)ON2Cc2cccc(-c3ccc(C(=O)N(C)C)cc3)c2)C[C@H]2C[C@@H]1C2(C)C | ♯

Please turn your attention to the following entry.
(Q) For the compound `C[C@@H]1[C@@H](NC(=O)[C@@H]2[C@H]([C@H](C)O)[C@H](CO)ON2Cc2cccc(-c3cccc(C(=O)N4CCCN(C)CC4)c3)c2)C[C@H]2C[C@@H]1C2(C)C` , what Bcl-XL binding affinity Ki is on record?
(A) ♯♯
